Test system: CD2F1 mice, L1210 leukemia ip, survival T/C
experiment.notes: NCI In Vivo Anticancer Drug Screen. Data for tumor model L1210 Leukemia (intraperitoneal) in CD2F1 (CDF1) mice
stated.conditions: endpoint: mean survival time; dose: 100.0 mg/kg/injection; schedule: Q04DX003 (ip); vehicle: Klucel (hydroxypropylcellulose) (HPC); higher = longer survival
Inconclusive results and toxic doses are left out.
For each of the molecules below, state its T/C.

Just so you know, measured T/C for O=C1CC(c2ccccc2)=NN1c1ccccc1 came out at 98 % of control

# molecule O=C1CN=C(c2ccccn2)c2cc(Br)ccc2N1 ; its T/C = 95 % of control

So, OC(CI)C1OCOC2COCOC21 (stereo not given) ? Its T/C was 102 % of control

The molecule listed as CCCSCCCC(=O)O has a reported T/C of 95 % of control

T/C for CC(=O)N(C)N=Nc1ccc(C(F)(F)F)cc1 is 102 % of control

Data point: CS(=O)(=O)c1nnc(-c2ccccc2)s1 ; T/C = 90 % of control

Lab note: Cc1c2[nH]c(c1CCC(=O)O)/C=c1\[n-]/c(c(C)c1CCC(=O)O)=C\c1[n-]c(c(C)c1C(C)O)/C=c1\[nH]/c(c(C)c1C(C)O)=C\2.[Cl][Pt+2][Cl] (stereo not given) gave T/C of 88 % of control

Entry CC(=O)Nc1ccc(C)cc1C , T/C reported as 94 % of control

Lookup result for NNC(=O)c1ccc(N)cc1 ; measured T/C: 95 % of control

// T/C value for CCOC(=O)/C=C/c1ccc(O)cc1 : 102 % of control

Source of measurements: PubChem BioAssay AID256
